# Test system: NCI-H522 lung
# Assay explanation: NCI-60 one-dose screen, 48 h (100 = growth as untreated, 0 = no growth, -100 = all killed)
# Applied conditions: 10 µM unless noted
This is part of a sample that, as a whole, favours compounds with a hit. Of some 83,000 tested, about 20% had one in any assay.
Assay metric: growth (%)

INSERT INTO results (molecule, unit_text, recorded_value) VALUES
  ('CC(=Nc1ccccc1)C1=C(O)C(Cc2ccccc2)NC1=O (stereo not drawn)', '%', -15.4),
  ('Cc1nn(-c2nc3ccccc3[nH]2)c2c1C(c1ccc(O)cc1)CC(=O)N2 (stereo not drawn)', '%', 52),
  ('COc1ccc(Nc2ncccc2NC(=O)c2cn(Cc3cccc(Oc4ccccc4)c3)nn2)cc1', '%', 77.8),
  ('CN(c1ncccc1CNc1nc(Nc2ccc3c(c2)CC(=O)N3)ncc1C(F)(F)F)S(C)(=O)=O', '%', -22.4),
  ('CC(C)(C)c1cnc(CSc2cnc(NC(=O)C3CCNCC3)s2)o1', '%', -24.8),
  ('N#Cc1ccc(-n2nnc3ccccc32)cc1C#N', '%', 88.1),
  ('O=C(Cc1ccc(/C=C/C(=O)c2ncc[nH]2)cc1)Nc1ccc(Br)cc1', '%', 13.2),
  ('COc1ccc(-c2ccc3c(N4CCOC[C@@H]4C)nc(N4CCOC[C@@H]4C)nc3n2)cc1CO', '%', 8.31),
  ('Cc1cccc(C)c1N1C(c2ccccc2)=NNC12C=CC(=O)c1c(O)cccc12 (stereo not drawn)', '%', 54.6),
  ('CC(C)C1CCC(C)C(C2(C#N)C(N)=NC(N)=C2C#N)C1=O (stereo not drawn)', '%', 89.4),
  ('COC(=O)[C@@H](OC)[C@@H]1Cc2cc3cc(OC4CC(OC5CC(O)C(O)C(C)O5)C(O)C(C)O4)c(C)c(O)c3c(O)c2C(=O)[C@H]1OC1CC(OC2CC(OC3CC(C)(O)C(O)C(C)O3)C(O)C(C)O2)C(O)C(C)O1 (stereo partly drawn)', '%', -30.3),
  ('CCc1nc2cc(F)c(/C=C/C(=O)NO)cc2c(=O)n1CCc1ccccc1', '%', -7.46),
  ('COC(=O)[C@]12CC[C@@H](C)[C@H](C)[C@@H]1C1=CC[C@@H]3[C@@]4(C)C(C=O)=C[C@@](C)(COS(C)(=O)=O)C4=CC[C@@]3(C)[C@]1(C)CC2', '%', -75.2),
  ('CN(C)CCOC(=O)Nc1nc2ccc(Sc3ccccc3)cc2[nH]1', '%', -24),
  ('O=C(Nc1cn[nH]c1-c1nc2ccc(CN3CCOCC3)cc2[nH]1)NC1CC1', '%', 11.5),
  ('CCOc1cc2ncc(C#N)c(Nc3ccc(OCc4ccccn4)c(Cl)c3)c2cc1NC(=O)/C=C/CN(C)C', '%', 6.98),
  ('COc1cc(-c2nc(C(=O)NCC(=O)O)nn2-c2ccc(Cl)cc2)cc(OC)c1OC', '%', 97.1),
  ('CN1CCN(Cc2ccc(NC(=O)c3[nH]ncc3Nc3ncnc4sc5c(c34)CCCC5)cc2)CC1', '%', -76.1);

----------
# Test system: UO-31 renal
# Assay explanation: NCI-60 one-dose screen, 48 h (100 = growth as untreated, 0 = no growth, -100 = all killed)
# Applied conditions: 10 µM unless noted
The panel holds about 83,000 compounds, 20% with a hit somewhere; the sample as a whole holds those more often. Active and inactive are the calls of the source. How the source made its calls: active means growth percent below 10; inactive means the rest.
Assay metric: growth

INSERT INTO measurements (compound, recorded_value) VALUES
  ('CC(N)C(Cc1ccc(Cl)cc1)c1ccc(Cl)cc1 (stereo unspecified)', '55.8% (inactive)'),
  ('c1ccc2c(c1)CCN(NCCN1CCCC1)C2', '75% (inactive)'),
  ('O=C(COc1cccc(/C=C2\Cc3ccc(Cl)cc3C2=O)c1)Nc1nccs1', '-68% (active)'),
  ('O=C(Cc1ccc(/C=C/C(=O)c2ncc[nH]2)cc1)Nc1ccc(Br)cc1', '-40% (active)'),
  ('C[N+](C)(CCOC(c1ccccc1)c1ccccc1)CC(=O)OCc1ccccc1', '86.9% (inactive)'),
  ('CCOC(=O)C1=C(C)NC(=O)NC1c1cc(=O)oc2ccc(C)cc12 (stereo unspecified)', '93.1% (inactive)');

----------
# Tested on: LOX IMVI melanoma
# Assay explanation: NCI-60 one-dose screen, 48 h
# Applied conditions: 10 µM unless noted
The panel holds about 83,000 compounds, 20% with a hit somewhere; the sample as a whole holds those more often. The source made the active and inactive calls. How the source made its calls: active means growth percent below 10; inactive means the rest.
Outcome codes: 1 (yes) (active), 0 (no) (inactive)

INSERT INTO assay_data (compound, assigned_category) VALUES
  ('CCCc1cc2cc(-n3nc(C)c4c3CC(C)(C)CC4=O)cc(NC3CCC(O)CC3)c2c(=O)[nH]1 (centres undefined)', '1 (yes)'),
  ('CN(C)C[C@@H]1CCn2cc(c3ccccc32)C2=C(C(=O)NC2=O)c2cn(c3ccccc23)CCO1', '1 (yes)'),
  ('COc1cc(OC)c(/C=C/S(=O)(=O)Cc2ccc(OC)c(NCC(=O)O)c2)c(OC)c1', '0 (no)'),
  ('Cc1cc(Nc2ncc(Cl)c(Nc3ccccc3S(=O)(=O)C(C)C)n2)c(OC(C)C)cc1C1CCNCC1', '1 (yes)'),
  ('C[C@@H](Oc1cc(-c2cnn(C3CCNCC3)c2)cnc1N)c1c(Cl)ccc(F)c1Cl', '1 (yes)'),
  ('O=C(c1c(F)ccc(NS(=O)(=O)N2CC[C@@H](F)C2)c1F)c1c[nH]c2ncc(-c3cnc(C4CC4)nc3)cc12', '0 (no)'),
  ('Cn1cc(-c2ccc(F)c(C(F)(F)F)c2)nc1C1CCN(c2ncnc3[nH]ncc23)CC1', '0 (no)'),
  ('NC1=Nc2ccccc2N(O)N1', '0 (no)'),
  ('Cc1cc(Nc2ncnc3ccc(NC4=NC(C)(C)CO4)cc23)ccc1Oc1ccn2ncnc2c1', '0 (no)'),
  ('O=C(Cn1cncn1)Nc1ccc(-c2nc3ccccc3s2)cc1', '0 (no)'),
  ('Cc1cc2c(-c3nc4ccccn4c3Nc3cccc4ccccc34)c(O)c(O)cc2c(O)c1-c1c(C)cc2c(-c3nc4ccccn4c3Nc3cccc4ccccc34)c(O)c(O)cc2c1O', '1 (yes)'),
  ('CSc1nc2ncnc(SC)c2[nH]1', '0 (no)'),
  ('COc1cnc2c(c1)C(=O)c1c-2n(CCCN2CCOCC2)c(=O)c2cc(Cl)ccc12', '1 (yes)'),
  ('Cn1ccnc1C(=O)/C=C/c1ccc(CC(=O)Nc2ccc(S(F)(F)(F)(F)F)cc2)cc1', '1 (yes)'),
  ('COc1cc(N2CCC(N3CCN(C)CC3)CC2)ccc1Nc1ncnc(Nc2ccccc2S(=O)(=O)C(C)C)n1', '0 (no)'),
  ('COc1cc2c(Oc3ccc(NC(=O)C4(C(=O)Nc5ccc(F)cc5)CC4)cc3F)ccnc2cc1OCCCN1CCOCC1', '1 (yes)'),
  ('C#Cc1cccc(Nc2ncnc3cc4c(cc23)OCCOCCOCCO4)c1', '0 (no)'),
  ('CN1CC[C@H](c2c(O)cc(O)c3c(=O)cc(-c4ccccc4Cl)oc23)[C@H](O)C1', '1 (yes)'),
  ('C=CC(=O)N1CCC[C@H](n2c(=O)n(-c3ccc(Oc4ccccc4)cc3)c3c(N)ncnc32)C1', '0 (no)');

----------
# System: NCI-H522 lung
# Assay explanation: NCI-60 one-dose screen, 48 h
# Applied conditions: 10 µM unless noted
Compounds without any hit were thinned out: in the full panel of roughly 83,000, 20% have a hit. Activity calls are given as the source filed them. The calls were made as follows: active = growth percent below 10; inactive = the rest.
Outcome codes: YES (active), NO (inactive)

INSERT INTO assay_data (molecule, assigned_category) VALUES
  ('N#CCNC(=O)c1ccc(-c2ccnc(Nc3ccc(N4CCOCC4)cc3)n2)cc1', 'YES'),
  ('CCC1(/C=N/NC(N)=S)NC(=O)NC1=O (stereo not given)', 'NO'),
  ('Cn1cnc2c(F)c(Nc3ccc(Br)cc3Cl)c(C(=O)NOCCO)cc21', 'NO'),
  ('CCNC(=O)C#Cc1ccc2c(C(=Nc3ccc(CN(C)C)cc3)c3ccccc3)c(O)[nH]c2c1', 'NO'),
  ('NC1=Nc2cc(OCCCN3Cc4ccccc4C3)c(OCC3CC3)cc2C12CCCC2', 'NO'),
  ('CCOc1ccc(N=C(C)Nc2ccc(OCC)cc2)cc1', 'NO'),
  ('C=C1C(=O)O[C@H]2[C@H]1CC/C(CNC(=O)c1cc3cc(OC)ccc3[nH]1)=C\CC[C@@]1(C)O[C@@H]21', 'YES'),
  ('CNC(=O)c1ccc(Nc2ncc(C(F)(F)F)c(NCc3nccnc3N(C)S(C)(=O)=O)n2)cc1', 'YES'),
  ('Cn1nccc1Nc1nccc(-c2ccn([C@H](CO)c3ccc(Cl)c(F)c3)c(=O)c2)n1', 'NO'),
  ('CC(C)(C)c1ccc(Cn2cc(CSc3nc4ccccc4s3)nn2)cc1', 'NO'),
  ('COc1cc(N2CCC(N3CCN(C)CC3)CC2)ccc1Nc1ncnc(Nc2ccccc2S(=O)(=O)C(C)C)n1', 'NO'),
  ('CC1CCC(n2cnc3c(Cl)ncnc32)O1 (stereo not given)', 'NO'),
  ('O=c1[nH]c(N2CCOCC2)nc2scc(-c3ccccc3)c12', 'NO'),
  ('Cc1cc(Nc2cc(N3CCN(C)CC3)nc(Sc3ccc(NC(=O)C4CC4)cc3)n2)n[nH]1', 'NO'),
  ('COc1cc(OC)c(C(=O)/C=C/c2cc3c(cc2OCc2ccccc2)OC(C)(C)CC3)cc1CC=C(C)C', 'NO'),
  ('O=C(CNc1nc(-c2ccc(Cl)cc2)cs1)Nc1ccc(-c2nc3ccccc3s2)cc1', 'NO'),
  ('CCN1CCN(CCCN(C[C@H]2Cc3ccccc3CN2)[C@H]2CCCc3cccnc32)CC1', 'NO'),
  ('CC1=CC2c3oc(-c4ccccc4)c(C(=O)c4ccccc4)c3CNC2C=C1 (stereo not given)', 'NO'),
  ('CN1CCN(c2nc(NCCNc3ccnc4cc(Cl)ccc34)c3ccccc3n2)CC1', 'YES'),
  ('Cc1c(NC(=O)OC[C@@H]2COCCN2)cn2ncnc(Nc3ccc4c(cnn4Cc4cccc(F)c4)c3)c12', 'YES');

Data provenance is PubChem BioAssay (NCI).
